Values were extracted from patent US8642609B2.

Entries and their measured pEC50 follow.
# Tested on: ΔF508-CFTR (Homo sapiens, UniProt P13569, DEL508-508)
# Sequence (P13569 with tags, fused parts or gaps DEL508-508): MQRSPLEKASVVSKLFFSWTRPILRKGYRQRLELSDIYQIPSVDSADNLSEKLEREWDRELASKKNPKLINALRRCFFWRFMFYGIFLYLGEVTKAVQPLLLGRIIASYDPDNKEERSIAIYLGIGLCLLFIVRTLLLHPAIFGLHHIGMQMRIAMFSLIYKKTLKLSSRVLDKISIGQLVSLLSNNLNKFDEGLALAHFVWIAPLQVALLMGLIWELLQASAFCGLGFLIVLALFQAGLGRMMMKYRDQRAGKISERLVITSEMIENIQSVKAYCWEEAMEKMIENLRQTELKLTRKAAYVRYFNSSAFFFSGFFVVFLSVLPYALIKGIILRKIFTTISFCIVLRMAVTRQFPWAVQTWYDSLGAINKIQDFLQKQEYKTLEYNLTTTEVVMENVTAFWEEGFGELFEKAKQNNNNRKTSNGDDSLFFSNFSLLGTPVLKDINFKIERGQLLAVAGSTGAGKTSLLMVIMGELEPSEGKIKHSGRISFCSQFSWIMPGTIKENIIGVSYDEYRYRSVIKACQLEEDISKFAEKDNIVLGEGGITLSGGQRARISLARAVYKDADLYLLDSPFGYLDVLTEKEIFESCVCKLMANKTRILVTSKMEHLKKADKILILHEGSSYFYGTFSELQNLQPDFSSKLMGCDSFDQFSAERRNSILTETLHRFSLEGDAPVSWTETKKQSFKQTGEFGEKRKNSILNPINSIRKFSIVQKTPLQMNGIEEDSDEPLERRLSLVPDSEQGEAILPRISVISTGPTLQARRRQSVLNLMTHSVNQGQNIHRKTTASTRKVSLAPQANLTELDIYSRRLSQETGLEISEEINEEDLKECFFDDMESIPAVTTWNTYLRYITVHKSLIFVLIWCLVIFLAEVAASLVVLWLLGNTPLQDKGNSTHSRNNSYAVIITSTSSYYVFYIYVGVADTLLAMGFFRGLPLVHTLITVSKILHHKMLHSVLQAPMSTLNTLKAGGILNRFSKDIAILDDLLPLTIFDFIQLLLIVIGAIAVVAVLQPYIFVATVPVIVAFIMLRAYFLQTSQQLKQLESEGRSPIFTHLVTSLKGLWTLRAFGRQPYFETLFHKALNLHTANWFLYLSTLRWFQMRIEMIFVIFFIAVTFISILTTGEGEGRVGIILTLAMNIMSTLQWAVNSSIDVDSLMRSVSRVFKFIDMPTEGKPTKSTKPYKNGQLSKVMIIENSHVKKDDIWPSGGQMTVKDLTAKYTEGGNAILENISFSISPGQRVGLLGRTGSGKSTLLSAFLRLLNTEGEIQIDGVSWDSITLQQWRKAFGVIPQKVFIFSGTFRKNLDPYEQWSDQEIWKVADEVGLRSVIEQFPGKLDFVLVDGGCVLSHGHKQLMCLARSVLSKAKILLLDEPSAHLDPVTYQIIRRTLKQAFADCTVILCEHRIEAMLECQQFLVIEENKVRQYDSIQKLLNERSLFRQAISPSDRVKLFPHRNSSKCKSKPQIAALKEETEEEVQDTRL
# Protocol: Membrane potential optical assay (FRET/VIPR), identification of correction compounds
pEC50: −log10 of the molar value.
Property measured: pEC50

In [3]: df
Out[3]:
                                   molecule  property_measured        result
0  COc1ccc(S(=O)(=O)N2CCN(C(C)c3ncc(C(=O)N(C)C)c(N4CCCCC4)n3)CC2)cc1 (stereo not shown)              pEC50  4.22 to 4.60
1  COc1ccc(C(=O)N2CCN(C(C)c3nc4ccc(Cl)cc4c(=O)n3C)CC2)cc1OC (stereo not shown)              pEC50  4.22 to 4.60
2  CCCn1c(CN2CCN(S(=O)(=O)c3ccc(OC)cc3)CC2)nc2ccccc2c1=O              pEC50  4.60 to 5.00
3                   CCc1nc(N(C)C)c2ccccc2n1              pEC50  4.22 to 4.60
